# composite z-score annotations
test system: Sam68 (KHDRBS1); test: Sam68 small-molecule binders, primary screen, biochemical, small-molecule microarray, 635 nm fluorescence (AID 1125); conditions: small-molecule microarray binding, higher = more signal;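 note: score merges 667 nm channel intensity with signal to noise over triplicate slides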
Quick one: just the number, no unit, thanks!

Recorded composite z-score for O=C1OC[C@@H](c2ccccc2)N2CC(/C=C/c3ccccc3)=CC12 (stereo partly drawn) , please?
-1.57

Param item = CC(C)(C)OC(=O)CC[C@]1(C(=O)NCCN2CCOCC2)N=C(c2ccc(OCCCO)cc2)O[C@H]1c1ccccc1 ; retrieve measured composite z-score.
0.218

Recorded composite z-score of C=C(C(=O)CC[C@H](OC(=O)c1cccnc1)c1cccc(OCCO)c1)C(C)C , please.
0.481

====

We begin with a simple list: items and their reported composite z-score.
molecular target: Torsin-1A-interacting protein 1 (Homo sapiens); experiment: LAP1 binders from COS7 cell lysate, primary screen, small-molecule microarray, 635/667 nm fluorescence (AID 1116); details: COS7-hLAP1 lysate binding, 635 nm fluorescence, higher = more signal
# answer = number (no unit)

Use these answered entries as a reference point.
{"compound": "C=CCNC(=O)[C@@H]1[C@H]2C(=O)O[C@H](c3ccccc3)[C@H](c3ccccc3)N2[C@H](c2ccc(OCCO)cc2)[C@@]12C(=O)N(C(=O)OCCOC)c1ccc(C#CC3=CCCCC3)cc12", "reported": 0.642}
{"compound": "COc1ccc(C(O)C2C=CC3C(=O)N(Cc4ccccc4)C(=O)C3N2n2cnnc2)c2ccccc12 (stereo not drawn)", "reported": 1.2}
{"compound": "NC(N)=NCc1cn(CCc2c[nH]c3ccccc23)nn1", "reported": 0.615}
{"compound": "COc1ccc(CCNC(=O)[C@@]2(Sc3ccc(C)cc3)CC(=O)N(Cc3cc(C(F)(F)F)cc(C(F)(F)F)c3)[C@@H]2c2ccc(CO)cc2I)cc1", "reported": 0.282}

Sample C=C[C@H](COC(C)=O)NS(=O)(=O)c1ccc(Br)cc1 — what was its composite z-score?
0.168

Consider the compound C=CCN1C(=O)[C@@]2(CCC(=O)OC(C)(C)C)N=C(c3ccc(OCCCO)cc3)O[C@H]2c2ccccc21 and give its measured composite z-score.
0.144

Form field: reported composite z-score of C[C@H]1ON(c2ccc(C(=O)OC(C)(C)C)cc2)[C@@H](c2ccc(O)cc2)[C@@H]1C(=O)N1C(=O)OC[C@@H]1c1ccccc1
0.165

What value of measured composite z-score is listed for CO[C@H]1O[C@H](CO)[C@@H](OC(=O)Nc2ccccc2-c2ccccc2)[C@H](OC(=O)Nc2ccc3c(c2)OCO3)[C@@H]1OC(=O)Nc1ccc2c(c1)OCO2 ?
0.541

====

tested on: Lefty1; assay: Lefty1 binders on small-molecule microarrays, primary screen, biochemical, small-molecule microarray, 635/667 nm fluorescence (AID 1139); settings: small-molecule microarray binding, fluorescence 635/667; higher = more signal
Param threshold (0.1) applies to composite z-score; output Met when value >= threshold, Not met when value < threshold.

Use these answered entries as a reference point.
{"compound": "O=C1c2ccccc2[C@](Cc2ccccc2I)(C(=O)NCCN2CCOCC2)[C@H](c2ccc(CO)cc2)N1Cc1ccccc1", "label.value": "Met"}
{"compound": "Cc1ccc(S[C@]2(C(=O)NCc3ccccc3)CC(=O)N(C(C)C)[C@@H]2c2ccc(CO)cc2I)cc1", "label.value": "Not met"}

Entry O=C(CCCCCCC(=O)Nc1ccccc1)N/N=C/c1ccccc1 : is its composite z-score no less than 0.1?
Not met

Dear colleague, could you confirm whether COC(=O)[C@@]1(Cc2ccc(OC)cc2)[C@H]2c3cc(C(=O)N(C)C)n(Cc4nc5ccccc5[nH]4)c3C[C@H]2CN1C(=O)c1ccccc1 has composite z-score at or above 0.1?
Not met

Decide: is the reported value of composite z-score for COc1ccc([Si](C)(C)[C@@H]2[C@@H](CCO)O[C@]3(C(=O)N(Cc4cccc(N5C(=O)c6ccccc6Oc6ccccc65)c4)c4ccccc43)[C@H]2C)cc1 equal to or greater than 0.1?
Met

Decide: is the reported value of composite z-score for C=C(C(=O)CC[C@H](OC(=O)c1cccnc1)c1ccc(CO)o1)C(C)C equal to or greater than 0.1?
Met

Does COCCOC(=O)N1C(=O)[C@@]2(c3cc(C#CC4(O)CCCCCC4)ccc31)[C@H](C(N)=O)[C@H]1C(=O)O[C@H](c3ccccc3)[C@H](c3ccccc3)N1[C@@H]2c1ccc(O)cc1 have a reported composite z-score of at least 0.1?
Met

Answer whether composite z-score of C[C@]12C(=O)N(CCCCCCO)[C@@H]3C(=O)N(c4ccc(Cl)cc4)CC=CC31O[C@@H]1/C=C\CCCOC(=O)C12 (stereo not given in full) is greater than or equal to 0.1.
Not met

====

biological target: Follistatin-related protein 3 (Homo sapiens) (UniProt O95633); assay: FSTL3 binders on small-molecule microarrays, primary screen, biochemical, small-molecule microarray, 635 nm fluorescence (AID 1105); conditions: FSTL3 binding, higher = more signal;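 note: score merges emission near 667 nm and signal to noise per printed spot across three slides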
Sequence (O95633 whole entry, looked up): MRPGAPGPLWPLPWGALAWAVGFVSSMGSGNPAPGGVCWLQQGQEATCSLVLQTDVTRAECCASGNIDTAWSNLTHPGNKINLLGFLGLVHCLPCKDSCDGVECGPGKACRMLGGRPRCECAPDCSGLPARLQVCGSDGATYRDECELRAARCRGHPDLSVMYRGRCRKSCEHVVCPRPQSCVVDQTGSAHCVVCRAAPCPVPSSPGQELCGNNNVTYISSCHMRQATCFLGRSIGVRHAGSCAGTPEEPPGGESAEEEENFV
Items are presented alongside their recorded composite z-score.
Reply with the value as a number alone.

{"molecule": "COC(=O)[C@@]1(Cc2ccccc2)[C@H]2c3cc(C(=O)N4CCCC4)[nH]c3C[C@H]2CN1C(=O)c1ccccc1", "composite z-score": -0.444}
{"molecule": "C=CCN1Cc2ccccc2C[C@@]2(N=C(c3ccc(OCCCO)cc3)O[C@H]2c2ccccc2)C1=O", "composite z-score": 0.363}
{"molecule": "CC[C@@H]1[C@H]2C3C(=O)N(CC)C(=O)C3CC(=O)[C@H]2[C@H](c2ccc(C)cc2)N1S(=O)(=O)c1ccc(C)cc1 (some centres undefined)", "composite z-score": 0.955}
{"molecule": "CC(C)N1CC=CC23O[C@@H]4C=CCOC(=O)[C@@H]4[C@H]2C(=O)N(C(C)CO)[C@@H]3C1=O (some centres undefined)", "composite z-score": -0.93}
{"molecule": "COc1ccc([Si](C)(C)[C@H]2[C@H](CCn3cc([C@H](O)c4ccccc4)nn3)O[C@@]3(C(=O)N(Cc4ccc(N5CCC5=O)cc4)c4ccccc43)[C@@H]2C)cc1", "composite z-score": 0.855}

Kindly review the next molecule as well.
composite z-score for O=C1OCC=C[C@H]2OC34C=CCN(Cn5nnc6ccccc65)C(=O)[C@H]3N(CCCCCCO)C(=O)[C@@H]4[C@@H]12 (some centres undefined) ?
-1.02

====

experiment: osmotic lysis modulators in infected erythrocytes, primary screen, PSAC antagonist project, cell-based, P. falciparum Indochina, OD700, 3 h (AID 1156); settings: higher = more signal, called active from +8 up or from −8 down
Binary call on z-score: 1 from -0.1 upward, 0 beneath that.

{"compound": "COCC(=C=CC[C@H](O)c1ccc(OCCO)cc1)C[C@H](O)COCc1ccccc1", "label.value": 1}
{"compound": "O=C1O[C@@H](c2ccccc2)[C@@H](c2ccccc2)N2[C@@H](c3ccccc3OCCO)[C@]3(C(=O)Nc4ccccc43)[C@@H](C(=O)NC[C@H](O)c3ccccc3)[C@H]12", "label.value": 0}
{"compound": "Cc1ccc(F)cc1S(=O)(=O)N[C@@H]1CCN(Cc2ccc(OC(C)C)cc2)C1", "label.value": 0}

Is the recorded value of z-score equal to or greater than -0.1 for this compound? CC(C)N1C(=O)[C@@]2(c3ccc([N+](=O)[O-])cc3)CC(=O)N(C3CCCCC3)[C@@H]2c2ccc(CO)cc21
0

Does C=CCC(OC(C)=O)[C@@H]1[C@@H](N(Cc2cc3ccccc3o2)C(=O)Cc2ccc(F)cc2)c2cc(OCCCO)ccc2N1C(=O)c1ccc2ccccc2n1 (some centres not stated) have a reported z-score of at least -0.1?
0

Given COC(=O)[C@@]1(Cc2ccc(F)cc2)[C@H]2c3cc(C(=O)N4CCCC4)n(CCF)c3C[C@H]2CN1C(=O)c1ccccc1 , state whether its z-score is at least -0.1.
1

====

molecular target: Homeobox protein Hox-A13 (Mus musculus) (UniProt Q62424); assay: inhibitors of HoxA13-DNA binding, primary screen, biochemical, fluorescence polarization, labeled oligonucleotide (AID 1185); settings: 15 min, higher = more signal, called active from +8 up or from −8 down
Sequence (Q62424 whole entry, looked up): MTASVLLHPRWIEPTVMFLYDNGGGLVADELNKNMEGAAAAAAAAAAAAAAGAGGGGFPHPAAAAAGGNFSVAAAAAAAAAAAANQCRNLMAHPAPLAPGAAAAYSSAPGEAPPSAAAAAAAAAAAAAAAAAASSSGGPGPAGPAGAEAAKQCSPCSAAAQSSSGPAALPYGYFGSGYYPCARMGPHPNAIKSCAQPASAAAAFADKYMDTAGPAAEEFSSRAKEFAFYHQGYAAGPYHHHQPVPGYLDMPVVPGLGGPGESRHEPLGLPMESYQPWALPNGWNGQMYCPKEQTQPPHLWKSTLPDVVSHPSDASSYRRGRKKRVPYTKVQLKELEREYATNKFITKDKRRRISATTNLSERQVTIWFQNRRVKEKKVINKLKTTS
Below, each entry is listed alongside its reported z-score.
Please give the numeric answer without any surrounding text.

{"line.notation": "COc1ccc([Si](C)(C)[C@H]2[C@H](CCn3cc([C@H](O)c4ccccc4)nn3)O[C@@]3(C(=O)N(Cc4ccc(N5CCOC5=O)cc4)c4ccccc43)[C@@H]2C)cc1", "z-score": -2.28}
{"line.notation": "C[C@]1(C(=O)NCCN2CCOCC2)c2ccccc2C(=O)N(Cc2ccc(OC(F)(F)F)cc2)[C@H]1c1ccc(CO)cc1", "z-score": -4.78}
{"line.notation": "C=CC[C@H](OC(=O)Nc1ccc(OC)cc1)c1ccc(O)c2ccccc12", "z-score": -0.0657}
{"line.notation": "O=c1cccc(-c2ccc(C(F)(F)F)cc2)o1", "z-score": -1.7}
{"line.notation": "O=C1C[C@]2(c3ccc([N+](=O)[O-])cc3)C(=O)N(Cc3ccccc3)c3cc(CO)ccc3[C@H]2N1CC12CC3CC(CC(C3)C1)C2", "z-score": -1.07}

Which z-score is reported with Homeobox protein Hox-A13 (Mus musculus) (UniProt Q62424) for this entry: COC(=O)[C@@]1(Cc2ccc(OC)cc2)[C@H]2c3cc(C(=O)N(C)C)n(CCc4c[nH]c5ccc(O)cc45)c3C[C@H]2CN1C(=O)c1ccccc1 ?
-1.44
